Listing: inhibition of growth at 0.4 ppm of selected compounds
# Test system: COL
# Assay procedure: In-vitro plant fungicide test
# Assay type: cell-based
# Study conditions: .4 ppm; Table IVb; read-out: % Control at (ppm) indicated COL
Structures can show the parent of a compound that is named as a salt.

Compound	Target system	inhibition of growth at 0.4 ppm, %
C[C@H](N)C(=O)N[C@@H](COCc1ccccc1)C(=O)OCC#CI [Compound 19, trifluoroacetate]	COL	0
CC(=O)NCC(=O)OCC#CI	COL	0
O=C(CN1C(=O)c2ccccc2C1=O)OCC#CI	COL	0
CC(C)(C)OC(=O)NCC(=O)OCC#CI	COL	0

Cited source for all entries: patent EP0414533A1
